Data origin: patent US20250361268A1

Hi there, I'd appreciate the recorded EC50 for every entry that follows.
measured.target: FPR2 (Homo sapiens, UniProt P25090)
Sequence (P25090 1-351): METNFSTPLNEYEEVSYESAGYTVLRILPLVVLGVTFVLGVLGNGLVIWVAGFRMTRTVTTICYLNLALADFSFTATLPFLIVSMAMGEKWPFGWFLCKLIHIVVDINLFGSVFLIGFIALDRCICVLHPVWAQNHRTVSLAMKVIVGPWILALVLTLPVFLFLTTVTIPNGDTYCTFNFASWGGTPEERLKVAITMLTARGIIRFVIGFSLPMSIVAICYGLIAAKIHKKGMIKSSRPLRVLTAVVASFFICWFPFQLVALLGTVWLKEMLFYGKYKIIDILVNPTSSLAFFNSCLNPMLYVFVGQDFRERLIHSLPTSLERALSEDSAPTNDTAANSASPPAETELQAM
procedure.text: Change in calcium activity by peptide (Fura-2) in RBL cells overexpressing FPR2
test.context: calcium activity (Fura-2), graded per Table 3, read-out: EC50 for [Ca^2+] FPR2
Peptide text beside a SMILES is read from it.

## Task Need EC50, item CCCC(=O)N[C@@H](Cc1c[nH]cn1)C(=O)N[C@@H](CCCCN)C(=O)N[C@@H](Cc1ccc(O)cc1)C(=O)N[C@@H](CCCCN)C(=O)N1CCC[C@H]1C(=O)N[C@H](CCSC)C(N)=O [Peptide 148] (HELM PEPTIDE1{[CCCC(=O)[*:2]].H.K.Y.K.P.[dM].[am]}$$$$V2.0)
## Result < 0.01 µM

## Task And for CCCCCCCC(=O)N[C@H](C(=O)N[C@@H](CCCCN)C(=O)N[C@@H](Cc1ccc(O)cc1)C(=O)N[C@@H](CCCCN)C(=O)N[C@H](C(=O)N[C@H](CCSC)C(N)=O)C(C)C)[C@@H](C)CC [Peptide 137] (HELM PEPTIDE1{[CCCCCCCC(=O)[*:2]].I.K.Y.K.V.[dM].[am]}$$$$V2.0) ?
## Result < 0.01 µM

====

measured.target: FPR1 (Homo sapiens, UniProt P21462)
Sequence (P21462 1-350): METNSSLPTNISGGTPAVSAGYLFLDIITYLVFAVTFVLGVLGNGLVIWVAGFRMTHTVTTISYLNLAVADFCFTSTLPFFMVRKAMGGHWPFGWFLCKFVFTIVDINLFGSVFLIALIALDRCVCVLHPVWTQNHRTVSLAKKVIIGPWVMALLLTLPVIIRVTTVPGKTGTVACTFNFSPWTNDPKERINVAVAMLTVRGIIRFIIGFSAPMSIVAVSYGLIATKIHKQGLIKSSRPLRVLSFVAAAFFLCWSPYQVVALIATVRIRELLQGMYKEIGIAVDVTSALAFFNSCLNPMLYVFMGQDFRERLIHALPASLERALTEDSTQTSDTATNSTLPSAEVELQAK
procedure.text: Change in calcium activity by peptide, FPR1 activation effect
test.context: calcium activity (Fura-2), graded per Table 3, read-out: EC50 for [Ca^2+] FPR1
Peptide text beside a SMILES is read from it.
metric.name: EC50

## Task Need EC50, item CCCC(=O)N[C@@H](CCCNC(=N)N)C(=O)N[C@@H](CCSC)C(=O)N[C@@H](CCCNC(=N)N)C(=O)N[C@@H](Cc1ccc(O)cc1)C(=O)N[C@@H](CCCCN)C(=O)N[C@H](C(=O)N[C@H](CCSC)C(N)=O)C(C)C [Peptide 7] (HELM PEPTIDE1{[CCCC(=O)[*:2]].R.M.R.Y.K.V.[dM].[am]}$$$$V2.0)
## Result > 10 µM

## Task And for CC[C@H](C)[C@H](N)C(=O)N[C@@H](CCCCN)C(=O)N[C@@H](CCCCN)C(=O)N[C@@H](Cc1c[nH]c2ccccc12)C(=O)N[C@@H](CCSC)C(=O)N[C@H](CCSC)C(N)=O [Peptide 130] (HELM PEPTIDE1{I.K.K.W.M.[dM].[am]}$$$$V2.0) ?
## Result > 10 µM

## Task And for CCCC(=O)N[C@@H](Cc1c[nH]cn1)C(=O)N[C@@H](CCSC)C(=O)N[C@@H](CCCNC(=N)N)C(=O)N[C@@H](Cc1ccc(O)cc1)C(=O)N[C@@H](CCCCN)C(=O)N1CCC[C@H]1C(=O)N[C@H](CCSC)C(N)=O [Peptide 60] (HELM PEPTIDE1{[CCCC(=O)[*:2]].H.M.R.Y.K.P.[dM].[am]}$$$$V2.0) ?
## Result > 10 µM
